B1: SMTNL2 (parent)
chain: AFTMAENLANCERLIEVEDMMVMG

variants of: B1; assay: protein stability index of a GFP-peptide fusion (GPS, HEK-293T) (PSI 1-6); higher = more stable; conditions: c terminus: a fixed tail appended;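 also: lentivirally expressed fusions sorted by FACS into six bins by GFP to DsRed ratio, PSI derived from sequencing read proportions per bin multiplied by bin number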
OBSERVED PROPERTY: protein stability index
Write no unit; give the number alone.

I15K :: 3.9
A5S :: 2.55
I15Y :: 2.95
R13Y :: 2.17

# input for lookup
Reported protein stability index ( L8R ) = 3.38
